For each of the molecules below, state its pIC50.
Target: UniProtKB P11715
Sequence (P11715 1-507): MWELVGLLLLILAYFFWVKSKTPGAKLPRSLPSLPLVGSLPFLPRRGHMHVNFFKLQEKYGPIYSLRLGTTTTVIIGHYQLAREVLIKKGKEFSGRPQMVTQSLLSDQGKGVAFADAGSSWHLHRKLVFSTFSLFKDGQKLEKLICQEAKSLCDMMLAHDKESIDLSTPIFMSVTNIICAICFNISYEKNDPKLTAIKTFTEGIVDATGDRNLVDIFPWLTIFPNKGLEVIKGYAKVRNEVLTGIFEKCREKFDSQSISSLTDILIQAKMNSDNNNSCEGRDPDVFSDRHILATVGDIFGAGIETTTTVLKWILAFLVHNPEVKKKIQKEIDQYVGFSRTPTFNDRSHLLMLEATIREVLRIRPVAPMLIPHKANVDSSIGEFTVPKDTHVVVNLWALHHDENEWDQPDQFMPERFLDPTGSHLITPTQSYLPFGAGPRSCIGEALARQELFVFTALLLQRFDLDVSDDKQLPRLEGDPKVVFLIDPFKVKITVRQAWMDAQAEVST
# reply with the number alone; pIC50 is -log10 of concentration in mol/L

Asked: Using known records, supply pIC50 for CNC(=O)c1ccc2cc(C(O)(c3c[nH]cn3)C(C)C)ccc2c1 (stereo not shown)
Given back: 8.21

Asked: State, in one line, measured pIC50 of CC(C)C(O)(c1ccc2cc(-c3ccco3)ccc2c1)c1c[nH]cn1 (stereo not shown)
Given back: 7.55

Asked: Please report the measured pIC50 for CC(C)C(O)(c1ccc2cc(-c3cnco3)ccc2c1)c1c[nH]cn1 (stereo not shown)
Given back: 7.85

Asked: Return pIC50 (reported value) for this molecule: CCC(O)(c1ccc2c3c(ccc2c1)OCC3)c1c[nH]cn1 (stereo not shown)
Given back: 7.74
